Values from paper PMC5314767

Target: POLRMT (human, UniProt O00411 43-1230)
Sequence (O00411 43-1230): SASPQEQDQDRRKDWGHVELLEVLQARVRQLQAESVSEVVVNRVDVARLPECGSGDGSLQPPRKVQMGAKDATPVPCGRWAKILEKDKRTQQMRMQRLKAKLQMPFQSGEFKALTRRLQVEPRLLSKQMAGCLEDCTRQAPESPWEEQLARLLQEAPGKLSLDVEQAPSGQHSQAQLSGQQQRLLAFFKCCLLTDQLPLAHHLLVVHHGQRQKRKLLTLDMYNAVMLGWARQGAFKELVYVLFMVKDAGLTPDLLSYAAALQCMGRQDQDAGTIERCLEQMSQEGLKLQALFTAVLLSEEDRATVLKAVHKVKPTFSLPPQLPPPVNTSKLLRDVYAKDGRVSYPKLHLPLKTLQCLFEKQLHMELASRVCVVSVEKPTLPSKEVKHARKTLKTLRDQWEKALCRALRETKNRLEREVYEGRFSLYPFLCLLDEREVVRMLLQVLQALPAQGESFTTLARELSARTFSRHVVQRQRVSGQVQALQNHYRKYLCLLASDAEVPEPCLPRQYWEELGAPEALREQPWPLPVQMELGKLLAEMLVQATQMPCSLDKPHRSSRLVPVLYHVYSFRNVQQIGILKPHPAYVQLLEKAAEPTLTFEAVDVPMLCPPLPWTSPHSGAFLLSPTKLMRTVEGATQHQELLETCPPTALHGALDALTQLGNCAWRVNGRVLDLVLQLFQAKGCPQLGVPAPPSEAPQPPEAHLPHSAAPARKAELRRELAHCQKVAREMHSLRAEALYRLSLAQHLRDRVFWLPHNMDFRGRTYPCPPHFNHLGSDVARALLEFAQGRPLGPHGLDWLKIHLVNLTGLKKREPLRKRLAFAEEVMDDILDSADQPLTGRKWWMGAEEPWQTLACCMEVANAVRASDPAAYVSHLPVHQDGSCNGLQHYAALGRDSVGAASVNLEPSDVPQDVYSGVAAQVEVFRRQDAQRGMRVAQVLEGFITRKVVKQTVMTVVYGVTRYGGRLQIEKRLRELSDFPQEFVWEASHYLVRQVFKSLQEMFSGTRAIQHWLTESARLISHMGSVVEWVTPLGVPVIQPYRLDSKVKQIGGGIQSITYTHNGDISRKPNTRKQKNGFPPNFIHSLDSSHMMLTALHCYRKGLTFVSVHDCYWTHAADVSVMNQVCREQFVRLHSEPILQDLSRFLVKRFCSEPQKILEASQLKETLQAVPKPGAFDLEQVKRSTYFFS
Experiment: fluorescence anisotropy
quantity-name: pKd
// returns pKd (minus log10 of molar concentration), number only

Query: Using known records, supply pKd for LSP -41 to -12 upstream fragment (dsDNA) DNA 1: TGTGTTAGTTGGGGGGTGACTGTTAAAAGT DNA 2: ACTTTTAACAGTCACCCCCCAACTAACACA
Response: 8.10
